Data origin, for the record: ChEMBL document CHEMBL1201862

- System: SK-OV-3
- method_description: NCI tumour cell line growth inhibition, 48 h
Calls of active or inactive are those of the source. Cut-off read from the data, not from the text of the source: active = GI50 up to about 1.1 µM and inactive = higher.
observation_type: GI50

Query :: Given the compound COc1ccc(COCC[C@H](C)OC2OC(CO[Si](C)(C)C(C)(C)C)C(O)C(O)C2O)cc1 (stereo not given in full) , what is its reported GI50?
Result :: > 100 µM (inactive)

Query :: // returns reported GI50 for input O=C(c1ccc(Cl)cc1)N(C(=S)OC12CC3CC(CC(C3)C1)C2)c1ccccc1
Result :: 53.1 µM (inactive)

Query :: Recorded GI50 for O=S(=O)(O)c1ccc(/N=N/c2ccc(/N=N/c3c(O)ccc4ccccc34)c(S(=O)(=O)O)c2)cc1 , please?
Result :: > 100 µM (inactive)

Query :: Look up GI50: C=C1C(=O)OC2CC(C)C3C4OC4C(O)C3(C)C(O)C12 (stereo not given)
Result :: 44.9 µM (inactive)

Query :: Entry COc1c(C)cc(O)cc1C=O : reported GI50 = ?
Result :: > 100 µM (inactive)

Query :: Name the recorded GI50 for COCN1C(=O)[C@@H]2CCCN2C(=O)c2cc(Cl)ccc21 .
Result :: > 100 µM (inactive)

Query :: May I ask what GI50 has been recorded for O=C(/C=C(\O)C(=O)O)/C=C(\O)c1ccc(Cl)cc1 ?
Result :: > 100 µM (inactive)

Query :: Form field: reported GI50 of O=C(OC1OC2COC(=O)c3cc(O)c(O)c(O)c3-c3c(cc(O)c(O)c3O)C(=O)OC3C2OC(=O)[C@@]24CC(=O)[C@@](O)(OC25C(=O)O[C@H]2[C@@H](O)CO[C@@]25O)C2(O)Oc5c(O)c(O)cc(c5C24)C(=O)OC13)c1cc(O)c(O)c(O)c1 (stereo not given in full)
Result :: 83 µM (inactive)

Query :: Record request: GI50 value, item CC1(C)OC2CN(C(=O)OCc3ccccc3)C(CO)C2O1 (stereo not given)
Result :: > 100 µM (inactive)

Query :: Need GI50, item Cc1c2c(cc3c1C(=O)C(O)=C([C@@H](C)CO)C3=O)C(C)(C)CCC2
Result :: 32.7 µM (inactive)

Query :: So what's the measured GI50 for this one? N#CCCC(CC#N)N1CCN(C(CC#N)CCC#N)CC1 (stereo not given)
Result :: > 100 µM (inactive)

Query :: Quick one: GI50 for N#Cc1c(-c2ccc(Cl)cc2)c2c([nH]c1=O)-c1cc([N+](=O)[O-])ccc1CCC2 ?
Result :: 28.7 µM (inactive)

Query :: I have this compound here, COc1ccc(/C=C2\Oc3cc(OC(C)=O)ccc3C2=O)cc1 , and I need its recorded GI50.
Result :: > 100 µM (inactive)

Query :: Entry CCN(CC)C(=S)Nc1ccc(-c2cc3ccc(O)cc3oc2=O)cc1 has what GI50?
Result :: 44.1 µM (inactive)

Query :: May I ask what GI50 has been recorded for Cc1c2n(c(=O)[nH]c1=O)C1OC(CO)C(O2)C1N=[N+]=[N-] (stereo not given) ?
Result :: > 100 µM (inactive)

Query :: # query: GI50 of entry NC1C/C(=N\O)c2c(Cl)sc(Cl)c21 (stereo not given)
Result :: > 100 µM (inactive)

Query :: Look at this compound and give its reported GI50. CC(C)(C)OC(=O)NCC(c1c[nH]c2ccccc12)c1c[nH]c2ccccc12
Result :: 16.8 µM (inactive)

Query :: Entry NP1(Oc2ccc(F)cc2)=NP(N)(Oc2ccc(F)cc2)=NP(Oc2ccc(F)cc2)(Oc2ccc(F)cc2)=N1 (stereo not given) has what GI50?
Result :: 14.2 µM (inactive)

Query :: I am curious: what GI50 value has been reported for N#Cc1c(C#N)c(SSc2c(C#N)c(C#N)c(N)n2-c2ccccc2)n(-c2ccccc2)c1N ?
Result :: 19.3 µM (inactive)

Query :: Given the compound Cc1cc(NS(=O)(=O)c2ccc(Nc3c4ccccc4nc4c(C(=O)N5CCN(CCO)CC5)ccc(Cl)c34)cc2)no1 , what is its reported GI50?
Result :: > 100 µM (inactive)
